- Read-out: growth arrest and DNA damage 45 (GADD45G), GADD45G (gene 10912)
- run_description: LTEA_HepaRG_GADD45G: Life Technologies and Expression Analysis (LTEA) Assay for growth arrest and DNA damage 45 (GADD45G) using HepaRG (AID 2283499)
- particulars: mRNA level, 48 h; actives raise or lower the signal
Active and inactive are the calls of the source. The calls were made as follows: active = hit-call score of the fitted dose curve at least 0.9, where 1 is the maximum; inactive = score below 0.9.
Hi there, use one of these labels in your reply, thanks! True (active), False (inactive)

For orientation, consider the following solved cases.
> print(dat)
                                   compound  group
1                         CCCN(CCC)C(=O)SCC  False
2  Cc1nn(C)c(Oc2ccccc2)c1C=NOCc1ccc(C(=O)OC(C)(C)C)cc1   True
3                  COc1c(Cl)ccc(Cl)c1C(=O)O  False
4             S=C([S-])NCCNC(=S)[S-].[Mn+2]   True

[Q] Entry CCN(Cc1c(F)cccc1Cl)c1c([N+](=O)[O-])cc(C(F)(F)F)cc1[N+](=O)[O-] : call = ?
[A] False

[Q] Entry CCCCC(CC)COC(=O)c1ccccc1C(=O)O (stereo not drawn) : call = ?
[A] False

[Q] Entry CN(C)C(=O)Nc1ccc(Cl)c(Cl)c1 : call = ?
[A] False

[Q] Entry COC(=O)c1ccc(I)cc1S(=O)(=O)NC(=O)Nc1nc(C)nc(OC)n1 : call = ?
[A] False

---

- run_description: BSK_3C_Vis: BioMAP Diversity Plus: 3C Assay for Morphology Visualization (AID 2283025);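 also: fitted both ways so gain or loss versus DMSO counts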
- particulars: primary human endothelial cells (HUVEC)
Activity calls are given as the source filed them. How the source made its calls: active means hit-call score of the fitted dose curve at least 0.9, where 1 is the maximum; inactive means score below 0.9.
Hi there, use one of these labels in your reply, thanks! active, inactive

For orientation, consider the following solved cases.
> print(dat)
                                   compound     group
1  COC(=O)c1c(Cl)nn(C)c1S(=O)(=O)NC(=O)Nc1nc(OC)cc(OC)n1  inactive
2                     COC(=O)c1ccccc1C(=O)O  inactive
3  CCCCOC(=O)[C@@H](C)Oc1ccc(Oc2ccc(C(F)(F)F)cn2)cc1    active
4                      CSC(=O)c1cccc2nnsc12  inactive
5  CC1(C)C(C=C(Cl)Cl)C1C(=O)OCc1cccc(Oc2ccccc2)c1 (stereo unspecified)    active

Continue with the compound presented below.
[Q] Entry Oc1ccc(C(c2ccc(O)cc2)C(Cl)(Cl)Cl)cc1 : call = ?
[A] active

---

- target_entity: Estrogen receptor beta (Homo sapiens) (UniProt Q92731)
- Sequence (Q92731 whole entry, looked up): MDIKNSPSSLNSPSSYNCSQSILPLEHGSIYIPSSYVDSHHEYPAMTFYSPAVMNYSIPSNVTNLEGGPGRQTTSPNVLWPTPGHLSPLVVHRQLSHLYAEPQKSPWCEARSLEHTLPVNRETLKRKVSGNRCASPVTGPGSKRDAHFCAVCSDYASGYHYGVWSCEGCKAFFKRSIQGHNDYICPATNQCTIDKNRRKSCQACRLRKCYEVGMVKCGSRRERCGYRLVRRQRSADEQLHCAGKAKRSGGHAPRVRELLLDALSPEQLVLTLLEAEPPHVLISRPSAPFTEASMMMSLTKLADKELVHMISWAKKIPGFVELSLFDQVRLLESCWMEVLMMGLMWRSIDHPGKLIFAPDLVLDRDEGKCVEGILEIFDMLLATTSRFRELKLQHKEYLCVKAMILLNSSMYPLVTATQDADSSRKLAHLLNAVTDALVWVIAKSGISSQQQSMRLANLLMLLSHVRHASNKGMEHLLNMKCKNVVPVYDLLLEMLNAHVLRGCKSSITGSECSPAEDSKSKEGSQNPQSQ
- run_description: OT_ER_ERbERb_0480: Odyssey Thera (OT) 8-hour HEK293T Protein-Complementation Assay for Estrogen Receptor-beta/-beta Homodimer (AID 2283357);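 also: active means signal gain over DMSO baseline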
Records with an inconclusive call do not appear. Calls of active or inactive are those of the source. How the source made its calls: active means hit-call score of the fitted dose curve at least 0.9, where 1 is the maximum; inconclusive means response in the unintended direction; inactive means score below 0.9.
readout_kind: outcome

> print(dat)
                                   molecule                             target.entity  endpoint.value
1  CCCCOC(=O)[C@@H](C)Oc1ccc(Oc2ccc(C(F)(F)F)cn2)cc1  Estrogen receptor beta (Homo sapiens) (UniProt Q92731)        inactive
2             S=C([S-])NCCNC(=S)[S-].[Mn+2]  Estrogen receptor beta (Homo sapiens) (UniProt Q92731)        inactive
3  CCCCC(CC)CN1C(=O)C2C3C=CC(C3)C2C1=O (centres undefined)  Estrogen receptor beta (Homo sapiens) (UniProt Q92731)        inactive
4  CCN(Cc1c(F)cccc1Cl)c1c([N+](=O)[O-])cc(C(F)(F)F)cc1[N+](=O)[O-]  Estrogen receptor beta (Homo sapiens) (UniProt Q92731)        inactive
5  CCOC(=O)C(C)Oc1ccc(Oc2nc3ccc(Cl)cc3o2)cc1 (centres undefined)  Estrogen receptor beta (Homo sapiens) (UniProt Q92731)        inactive
6  C=CCOC(Cn1ccnc1)c1ccc(Cl)cc1Cl (centres undefined)  Estrogen receptor beta (Homo sapiens) (UniProt Q92731)        inactive
7                       N#CSCSc1nc2ccccc2s1  Estrogen receptor beta (Homo sapiens) (UniProt Q92731)        inactive
8  CCCCOC(=O)C(C)Oc1ccc(Oc2ccc(C(F)(F)F)cn2)cc1 (centres undefined)  Estrogen receptor beta (Homo sapiens) (UniProt Q92731)        inactive

Kindly consider the entry below.
[Q] // map CC(=O)[C@H]1CC[C@H]2[C@@H]3CCC4=CC(=O)CC[C@]4(C)[C@H]3CC[C@]12C to recorded outcome (system: Estrogen receptor beta (Homo sapiens) (UniProt Q92731))
[A] inactive

---

- target_entity: Bile acid receptor (Homo sapiens)
- run_description: OT_FXR_FXRSRC1_0480: Odyssey Thera (OT) 8-hour HEK293T Protein-Complementation Assay for Farnesoid X receptor/SRC-1 Co-activator (AID 2283383)
Records with an inconclusive call do not appear. Calls of active or inactive are those of the source. How the source made its calls: active means hit-call score of the fitted dose curve at least 0.9, where 1 is the maximum; inconclusive means response in the unintended direction; inactive means score below 0.9.
Hi there, use one of these labels in your reply, thanks! active, inactive

For orientation, consider the following solved cases.
> print(dat)
                                   compound     group
1  CCN(Cc1c(F)cccc1Cl)c1c([N+](=O)[O-])cc(C(F)(F)F)cc1[N+](=O)[O-]  inactive
2  CCOC(=O)C(C)Oc1ccc(Oc2nc3ccc(Cl)cc3o2)cc1 (stereo not drawn)    active
3            CCCCOCCOCCOCc1cc2c(cc1CCC)OCO2    active
4  CC(C)(C)[C@@H](O)[C@@H](Cc1ccc(Cl)cc1)n1cncn1  inactive
5  COC(=O)CSc1cc(N=c2sc(=O)n3n2CCCC3)c(F)cc1Cl  inactive
6                   CCN(CC)C(=O)c1cccc(C)c1  inactive
7                c1ccc2[nH]c(-c3cscn3)nc2c1  inactive

Continue with the compound presented below.
[Q] Entry CCCOC(=O)c1ccc(C(=O)OCCC)nc1 : call = ?
[A] inactive

---

- run_description: ATG_ERE_CIS: Attagene CIS-FACTORIAL HepG2 Assay for Estrogen Response Element (ERE) (AID 2282940)
- particulars: HepG2 ERE cis-reporter, Attagene RNA transcript; actives raise or lower the signal
Calls of active or inactive are those of the source. Rule for the calls: active = hit-call score of the fitted dose curve at least 0.9, where 1 is the maximum; inactive = score below 0.9.
Hi there, use one of these labels in your reply, thanks! label 1 (active), label 0 (inactive)

For orientation, consider the following solved cases.
> print(dat)
                                   compound    group
1                   CCSC(=O)N(CC(C)C)CC(C)C  label 0
2                            O=C(O)c1ccccc1  label 0
3  COC(=O)c1cccc(C)c1S(=O)(=O)NC(=O)Nc1nc(OCC(F)(F)F)nc(N(C)C)n1  label 0

[Q] Entry CC(=O)S[C@@H]1CC2=CC(=O)CC[C@]2(C)[C@H]2CC[C@@]3(C)[C@@H](CC[C@@]34CCC(=O)O4)[C@H]12 : call = ?
[A] label 0

[Q] Entry CSC(=O)c1cccc2nnsc12 : call = ?
[A] label 0

[Q] Entry COC(=O)c1c(Cl)nn(C)c1S(=O)(=O)NC(=O)Nc1nc(OC)cc(OC)n1 : call = ?
[A] label 0

[Q] Entry CCCOC(=O)c1ccc(C(=O)OCCC)nc1 : call = ?
[A] label 0

[Q] Entry CCCN(CCC)C(=O)SCC : call = ?
[A] label 0

[Q] Entry CCC(O)=C1C(=O)CC(C(=O)O)CC1=O (centres undefined) : call = ?
[A] label 0

[Q] Entry COc1nc(C)nc(NC(=O)NS(=O)(=O)c2ccccc2OCCCl)n1 : call = ?
[A] label 0

[Q] Entry COC(=O)c1ccccc1C(=O)O : call = ?
[A] label 0

[Q] Entry CC(C)CCCCCCc1ccc(O)cc1 : call = ?
[A] label 1

---

- Read-out: Interleukin-8 (IL8), CXCL8 (gene 3576)
- run_description: BSK_3C_IL8: BioMAP Diversity Plus: 3C Assay for Interleukin-8 (IL8) Biomarker Activity (AID 2283020)
- particulars: primary human endothelial cells (HUVEC); actives raise or lower the signal
The source made the active and inactive calls. Rule for the calls: active = hit-call score of the fitted dose curve at least 0.9, where 1 is the maximum; inactive = score below 0.9.
Hi there, use one of these labels in your reply, thanks! active, inactive

> print(dat)
                                   molecule     group
1  CCCN(CCC)c1c([N+](=O)[O-])cc(C(F)(F)F)c(N)c1[N+](=O)[O-]    active
2      Oc1ccc(C(c2ccc(O)cc2)C(Cl)(Cl)Cl)cc1    active
3  S=C(S)NCCNC(=S)S.[Mn+2].[S-]C([S-])=NCCN=C([S-])[S-].[Zn+2]  inactive
4                        CCCOC(=O)NCCCN(C)C  inactive
5           CCOC(=O)NCCOc1ccc(Oc2ccccc2)cc1    active

[Q] Entry COC(=O)c1ccc(CNS(C)(=O)=O)cc1S(=O)(=O)NC(=O)Nc1nc(OC)cc(OC)n1 : call = ?
[A] inactive

[Q] Entry N[C@@H](Cc1cc(I)c(Oc2ccc(O)c(I)c2)c(I)c1)C(=O)O : call = ?
[A] inactive

[Q] Entry O=C(O)c1ccccc1 : call = ?
[A] inactive

[Q] Entry CCOC(=O)C(C)Oc1ccc(Oc2cnc3cc(Cl)ccc3n2)cc1 (configuration not stated) : call = ?
[A] inactive

All figures here come from PubChem BioAssay (EPA / NIEHS).
